B1: glmS ribozyme (parent)
chain: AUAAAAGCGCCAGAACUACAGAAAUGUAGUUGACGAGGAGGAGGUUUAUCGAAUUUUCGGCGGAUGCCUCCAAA

variants of: B1; test: self-cleavage kobs at 10000 uM GlcN6P; higher = faster cleavage; RNA array; conditions: with glucosamine-6-phosphate
Fewer inactive variants are shown than the library holds.
Measurement name: self-cleavage kobs at 10000 uM GlcN6P

Requested field: self-cleavage kobs at 10000 uM GlcN6P. Item: AUAAAAGCGCCAGAACUACAGAAAUGUAGUUGACGAGGAGGAAGUUUAUCGAGUUUUCGGCGGAUGCCUCCAAA [G43A A53G]
7.56e-05 s⁻¹

And what about the variant AUAAAAGCGCCAGCACUACAGAAAUGUAGUUGACGAGGAGGAGCUUUAUCGCAUUUUCGGCGGAAGCCUCCAAA [A14C G44C A52C U65A] ?
< 1e-05 s⁻¹

And what about the variant AUAAAAUAUCCAGAACUACAGAAAUGUAGUCGUCGAGGAGGAGGUUUAUCGAAUUUUCGGCGGAUGCCUCCAAA [G7U C8A G9U U31C A33U] ?
< 1e-05 s⁻¹

And what about the variant AUAAAAGCGCCCGAACUACAGAAAUGUAGUUGACGAGGAGGAGGUUUAUCGAAUUUUCGGCGGAUGCCUCUAAA [A12C C71U] ?
0.0164 s⁻¹

And what about the variant AUAAAAGCGCCAGAACUACAGAAAUGUAGUUCACGCGGAGGAGGUUUAUCCAAUUUUCGGCGGAUGCCUCCAAA [G32C A36C G51C] ?
< 1e-05 s⁻¹

And what about the variant AUAAAAGCUCUAGAACUACAGAAAUGUAGUUGGCGAGGAUGAGGUUUAUCGAAUUUUCGGCGGAUGCCGCCAAA [G9U C11U A33G G40U U69G] ?
< 1e-05 s⁻¹

And what about the variant AUAAACGCGCCAGAACUACAGAAAUGUAGUUGACGAGGAGGAGGUUGACCGAAUUUUCGGCGGAUGUCUCCAAA [A6C U47G U49C C67U] ?
< 1e-05 s⁻¹

And what about the variant AUAAAAGCGCCAUAACUACAGAAAUGUAAUUGACGAGGAGGAGUUUUAUCGAAUGUUCGGCGGAUGCCUCCAAA [G13U G29A G44U U55G] ?
< 1e-05 s⁻¹

And what about the variant AUAAAAGCGCCAGAACUACAGAAAUGUAGUUGGCGAGGAGGAGGUUUAUCGAAUUUUCGGCGGAGGCCUCCAAA [A33G U65G] ?
< 1e-05 s⁻¹

And what about the variant AUAAAAGCGCCAGAACUACAGAAAUGUAGUUGACGUGGUGGAGGUUUAUUGAAUUUUCGGGGGAAGCCUCCAAA [A36U A39U C50U C61G U65A] ?
< 1e-05 s⁻¹

And what about the variant AUAAAAGCGCCAGAACUACAGAAAUGUAGUUGGCGAGGAGGAGGUUUAUGGAAUUUUCGGCGGAUUCCUCCAAA [A33G C50G G66U] ?
5.3e-05 s⁻¹

And what about the variant AUAAAAGCGCCAGAACUACAGAAAUGUAGUUGACGAGGAGGAGGUUUUUCGAAUUUUCGGCCGAUGCCUUCAAA [A48U G62C C70U] ?
< 1e-05 s⁻¹

And what about the variant AUAAAAGCGCCAGAACUACAGAAAUGUAGCUCACGAGGAAGAGGUUUAUCGAAUUUUCGGCGGAUGCCUCCAAA [U30C G32C G40A] ?
6.96e-05 s⁻¹

And what about the variant AUAAAAGCGCCAGAACUACAGAAAUGUAGUUGACGAGGAGGAGGUUUGUCGAAUUUUCGGCGGAUGCCCCCAAA [A48G U69C] ?
7.34e-05 s⁻¹

And what about the variant AUAAAAGCGCCAGAACUACAGAAAUGUAGUUGGCGAGGAGGGGGUUUAUCGAAUUUUCUGAGGAUGCCUCCAAA [A33G A42G G59U C61A] ?
< 1e-05 s⁻¹

And what about the variant AUAAAAGCGCCAGAACUACAGAAAUGUAGUUGUCGAGGAGGCGGUUUAACGAAUUUUGGGGGGAUGCCUCCAAA [A33U A42C U49A C58G C61G] ?
< 1e-05 s⁻¹

And what about the variant AUAAAAGCGCCAGAACUACAGAAAUGUAGUUGACGAGGACGGGGUUUAUCGAAUUUUCGGCGGAUGCCUCCAAA [G40C A42G] ?
0.00299 s⁻¹

And what about the variant AUAAAAGCGCCAGAACUACAGAAAUGUAGUUGACGAGGUGGAGAUUUAUCGAAUUUUCGGCGGAUGCCUCCAAA [A39U G44A] ?
0.00144 s⁻¹

And what about the variant AUAAAUGCGCCAGAACUACAGAAAUGUAGUUGACGAGGAGGAGGUUUAUCGAAUUGUCGGCGGAUGCCUCCAAA [A6U U56G] ?
0.000104 s⁻¹

And what about the variant AUAAAUGCGCCAGAAUUACAGAAAUGUAGUUGACGAGGAGGAGGUUUAUCGAAUUUUCGGCGGAUGCCUCCAAA [A6U C16U] ?
0.00021 s⁻¹

And what about the variant AUAAAAGCGCCAGAGCUACAGAAAUGUAGUUGACGAGGGGGAGGUUUAUCGAAUUUUCGGCGGAUGCCUCCAAA [A15G A39G] ?
0.0199 s⁻¹

And what about the variant AUAAAAGCGCCAGAACUACAGAAAUGUAGUUGACGAGGAGGAGGUUUAUCGAAUUUGCGGCCGAUGCCUCCAAA [U57G G62C] ?
< 1e-05 s⁻¹
